FYI, the data here is from PubChem BioAssay AID540269.

# measured.target: glucose-6-phosphate dehydrogenase-6-phosphogluconolactonase (Plasmodium falciparum 3D7)
# test: PfG6PD enzyme inhibitors, kinetic NADPH readout, dose response, orthogonal assay, biochemical, kinetic NADPH detection (AID 540269)
# condition: purified PfG6PD-6PGL
Active and inactive are the calls of the source. The rule behind the calls is not given here.
Outcomes: active, inactive

{"cpd.smiles": "O=[N+]([O-])c1ccc(-[n+]2ccc3ccccc3c2)c([N+](=O)[O-])c1", "measured.target": "glucose-6-phosphate dehydrogenase-6-phosphogluconolactonase (Plasmodium falciparum 3D7)", "assigned.category": "inactive"}
{"cpd.smiles": "CN1/C(=C\\C(=O)c2cccs2)Sc2ccccc21", "measured.target": "glucose-6-phosphate dehydrogenase-6-phosphogluconolactonase (Plasmodium falciparum 3D7)", "assigned.category": "active"}
{"cpd.smiles": "Cc1cc(C)c2c(=O)n(CC(=O)NC3CCCC3)sc2n1", "measured.target": "glucose-6-phosphate dehydrogenase-6-phosphogluconolactonase (Plasmodium falciparum 3D7)", "assigned.category": "inactive"}
{"cpd.smiles": "[O-][N+](=Cc1ccccc1)c1ccc(Cl)cc1", "measured.target": "glucose-6-phosphate dehydrogenase-6-phosphogluconolactonase (Plasmodium falciparum 3D7)", "assigned.category": "inactive"}
{"cpd.smiles": "Cc1ccc(-c2nn(C)c(=O)c3ccccc23)cc1CNC(=O)/C=C/c1ccccc1", "measured.target": "glucose-6-phosphate dehydrogenase-6-phosphogluconolactonase (Plasmodium falciparum 3D7)", "assigned.category": "active"}
{"cpd.smiles": "Cc1ccc(NNS(=O)(=O)c2ccc(C)cc2)cc1", "measured.target": "glucose-6-phosphate dehydrogenase-6-phosphogluconolactonase (Plasmodium falciparum 3D7)", "assigned.category": "active"}
{"cpd.smiles": "Cc1ccc(/C=C/C(=O)NC2CCCCCCC2)o1", "measured.target": "glucose-6-phosphate dehydrogenase-6-phosphogluconolactonase (Plasmodium falciparum 3D7)", "assigned.category": "inactive"}
{"cpd.smiles": "O=c1c2ccccc2sn1-c1ccccc1F", "measured.target": "glucose-6-phosphate dehydrogenase-6-phosphogluconolactonase (Plasmodium falciparum 3D7)", "assigned.category": "active"}
{"cpd.smiles": "Cc1nnc(N/N=C/c2ccc(-c3ccccc3F)o2)n1N", "measured.target": "glucose-6-phosphate dehydrogenase-6-phosphogluconolactonase (Plasmodium falciparum 3D7)", "assigned.category": "active"}
{"cpd.smiles": "O=c1[nH]sc2cc(F)ccc12", "measured.target": "glucose-6-phosphate dehydrogenase-6-phosphogluconolactonase (Plasmodium falciparum 3D7)", "assigned.category": "active"}
{"cpd.smiles": "O=C(CSc1nc2cc(Cl)ccc2s1)c1ccco1", "measured.target": "glucose-6-phosphate dehydrogenase-6-phosphogluconolactonase (Plasmodium falciparum 3D7)", "assigned.category": "inactive"}
{"cpd.smiles": "COc1cc(/C=C2\\SC(c3ccc(C)cc3)=NC2=O)ccc1O", "measured.target": "glucose-6-phosphate dehydrogenase-6-phosphogluconolactonase (Plasmodium falciparum 3D7)", "assigned.category": "inactive"}

====

# measured.target: glucose-6-phosphate dehydrogenase-6-phosphogluconolactonase (Plasmodium falciparum 3D7)
# test: PfG6PD enzyme inhibitors, kinetic NADPH readout, dose response, orthogonal assay, biochemical, kinetic NADPH detection (AID 540269)
# condition: purified PfG6PD-6PGL
The source made the active and inactive calls. The rule behind the calls is not given here.
Outcomes: TRUE (active), FALSE (inactive)

{"molecule": "CN(C)c1ccc(Cc2cc3c(O)ccc(O)c3cc(Cc3ccc(N(C)C)cc3)c2=O)cc1", "measured.target": "glucose-6-phosphate dehydrogenase-6-phosphogluconolactonase (Plasmodium falciparum 3D7)", "assigned.category": "TRUE"}
{"molecule": "O=c1[nH]nc(CNc2ccc(O)cc2)c2ccccc12", "measured.target": "glucose-6-phosphate dehydrogenase-6-phosphogluconolactonase (Plasmodium falciparum 3D7)", "assigned.category": "FALSE"}
{"molecule": "Cc1ccccc1OCC(=O)NCC(=O)OCC(=O)c1ccc([N+](=O)[O-])cc1", "measured.target": "glucose-6-phosphate dehydrogenase-6-phosphogluconolactonase (Plasmodium falciparum 3D7)", "assigned.category": "TRUE"}
{"molecule": "Cc1cccc(NC2=C(NC(=O)c3ccccc3)C(=O)c3ccccc3C2=O)c1", "measured.target": "glucose-6-phosphate dehydrogenase-6-phosphogluconolactonase (Plasmodium falciparum 3D7)", "assigned.category": "FALSE"}
{"molecule": "CCN(CC)c1nc(N)nc(NS(=O)(=O)c2ccc(Cl)cc2)n1", "measured.target": "glucose-6-phosphate dehydrogenase-6-phosphogluconolactonase (Plasmodium falciparum 3D7)", "assigned.category": "FALSE"}
{"molecule": "O=C(COC(=O)c1ccc2c(c1[N+](=O)[O-])C(=O)c1ccccc1C2=O)NC1CC1", "measured.target": "glucose-6-phosphate dehydrogenase-6-phosphogluconolactonase (Plasmodium falciparum 3D7)", "assigned.category": "FALSE"}
{"molecule": "COc1ccc(Cl)cc1NC(=O)c1cccc([N+](=O)[O-])c1O", "measured.target": "glucose-6-phosphate dehydrogenase-6-phosphogluconolactonase (Plasmodium falciparum 3D7)", "assigned.category": "FALSE"}
{"molecule": "CN(C)c1cccc2c1c(NC(=O)c1ccc(F)cc1)nn2C", "measured.target": "glucose-6-phosphate dehydrogenase-6-phosphogluconolactonase (Plasmodium falciparum 3D7)", "assigned.category": "FALSE"}
{"molecule": "O=C(O)c1cccc(N2C(=O)C=CC2=O)c1", "measured.target": "glucose-6-phosphate dehydrogenase-6-phosphogluconolactonase (Plasmodium falciparum 3D7)", "assigned.category": "TRUE"}
{"molecule": "CCNc1nc(NC(C)C)nc(NS(=O)(=O)c2ccc(Cl)cc2)n1", "measured.target": "glucose-6-phosphate dehydrogenase-6-phosphogluconolactonase (Plasmodium falciparum 3D7)", "assigned.category": "FALSE"}
{"molecule": "Cc1ccc(NC2=C(NC(=O)c3ccccc3)C(=O)c3ccccc3C2=O)cc1Cl", "measured.target": "glucose-6-phosphate dehydrogenase-6-phosphogluconolactonase (Plasmodium falciparum 3D7)", "assigned.category": "FALSE"}
{"molecule": "Cc1ccc(-n2sc3ccccc3c2=O)cc1", "measured.target": "glucose-6-phosphate dehydrogenase-6-phosphogluconolactonase (Plasmodium falciparum 3D7)", "assigned.category": "TRUE"}
{"molecule": "COc1cc(NC(C)CCc2ccccc2)cc(OC)c1OC (centres undefined)", "measured.target": "glucose-6-phosphate dehydrogenase-6-phosphogluconolactonase (Plasmodium falciparum 3D7)", "assigned.category": "FALSE"}
{"molecule": "C=CCSc1nnc(NC(=O)c2ccc(Cl)nc2)s1", "measured.target": "glucose-6-phosphate dehydrogenase-6-phosphogluconolactonase (Plasmodium falciparum 3D7)", "assigned.category": "FALSE"}
{"molecule": "Cn1c(=O)[nH]c(=O)c2c1nc(SCCN1CCCCC1)n2CCCc1ccccc1", "measured.target": "glucose-6-phosphate dehydrogenase-6-phosphogluconolactonase (Plasmodium falciparum 3D7)", "assigned.category": "TRUE"}
{"molecule": "COC(=O)CCC(=O)OC1(C)C(=O)C2=CN(c3ccc(OC)cc3)C(c3ccc(OC)cc3)=CC2=C(Br)C1=O (centres undefined)", "measured.target": "glucose-6-phosphate dehydrogenase-6-phosphogluconolactonase (Plasmodium falciparum 3D7)", "assigned.category": "FALSE"}
{"molecule": "C=CCSc1nc2sc3c(c2c(=O)n1CC)CCc1ccccc1-3", "measured.target": "glucose-6-phosphate dehydrogenase-6-phosphogluconolactonase (Plasmodium falciparum 3D7)", "assigned.category": "FALSE"}
{"molecule": "C=CCN1CCc2cccc3c2[C@H]1Cc1ccc(O)c(O)c1-3", "measured.target": "glucose-6-phosphate dehydrogenase-6-phosphogluconolactonase (Plasmodium falciparum 3D7)", "assigned.category": "FALSE"}
{"molecule": "CCC(CO)[n+]1c(C)cc(/C=C2\\Sc3ccccc3N2Cc2ccccc2)cc1C (centres undefined)", "measured.target": "glucose-6-phosphate dehydrogenase-6-phosphogluconolactonase (Plasmodium falciparum 3D7)", "assigned.category": "TRUE"}
{"molecule": "CC1(OC(=O)C2CCCC2)C(=O)C=C2C=C(c3ccsc3)N(Cc3ccc4c(c3)OCO4)C=C2C1=O (centres undefined)", "measured.target": "glucose-6-phosphate dehydrogenase-6-phosphogluconolactonase (Plasmodium falciparum 3D7)", "assigned.category": "FALSE"}
{"molecule": "COCCNC(=S)Nc1ccc(N2CCOCC2)c(S(=O)(=O)Nc2ccc(Cl)cc2)c1", "measured.target": "glucose-6-phosphate dehydrogenase-6-phosphogluconolactonase (Plasmodium falciparum 3D7)", "assigned.category": "FALSE"}
{"molecule": "COC1=C(OC)C(=O)C(Sc2ccc3ccccc3c2)=CC1=O", "measured.target": "glucose-6-phosphate dehydrogenase-6-phosphogluconolactonase (Plasmodium falciparum 3D7)", "assigned.category": "TRUE"}
{"molecule": "COc1ccc2c(c1)c(=Cc1ccc(N(C)C)cc1)c1cc(-c3ccccc3)[n+](C)n12", "measured.target": "glucose-6-phosphate dehydrogenase-6-phosphogluconolactonase (Plasmodium falciparum 3D7)", "assigned.category": "TRUE"}
{"molecule": "[O-]/[N+](=C/c1cccnc1)c1ccc(Br)cc1", "measured.target": "glucose-6-phosphate dehydrogenase-6-phosphogluconolactonase (Plasmodium falciparum 3D7)", "assigned.category": "TRUE"}
{"molecule": "O=C(Nc1nnc(S(=O)(=O)N2CCCCC2)s1)c1cccc(Br)c1", "measured.target": "glucose-6-phosphate dehydrogenase-6-phosphogluconolactonase (Plasmodium falciparum 3D7)", "assigned.category": "TRUE"}
{"molecule": "CCOC(=O)CSc1nnc(NC(=O)c2cccc([N+](=O)[O-])c2)s1", "measured.target": "glucose-6-phosphate dehydrogenase-6-phosphogluconolactonase (Plasmodium falciparum 3D7)", "assigned.category": "FALSE"}
{"molecule": "Cc1ccc(-c2c(C(=O)N/N=C/c3ccsc3)nnn2-c2nonc2N)cc1", "measured.target": "glucose-6-phosphate dehydrogenase-6-phosphogluconolactonase (Plasmodium falciparum 3D7)", "assigned.category": "TRUE"}
{"molecule": "CC1(C)CN(c2ccccc2)N(C(=O)c2ccc(C#N)cc2)C1=O", "measured.target": "glucose-6-phosphate dehydrogenase-6-phosphogluconolactonase (Plasmodium falciparum 3D7)", "assigned.category": "FALSE"}
{"molecule": "O=C(Cc1ccccc1)NCC(=O)OCC(=O)c1ccc([N+](=O)[O-])cc1", "measured.target": "glucose-6-phosphate dehydrogenase-6-phosphogluconolactonase (Plasmodium falciparum 3D7)", "assigned.category": "TRUE"}
{"molecule": "CCOc1ccccc1CNc1ccc(O)cc1", "measured.target": "glucose-6-phosphate dehydrogenase-6-phosphogluconolactonase (Plasmodium falciparum 3D7)", "assigned.category": "TRUE"}
{"molecule": "Cc1nc2c(o1)C(=O)c1ccccc1C2=Nc1ccccc1", "measured.target": "glucose-6-phosphate dehydrogenase-6-phosphogluconolactonase (Plasmodium falciparum 3D7)", "assigned.category": "FALSE"}
{"molecule": "COc1ccccc1N1CSC2=C(C#N)C(c3ccc(SC)cc3)CC(=O)N2C1 (centres undefined)", "measured.target": "glucose-6-phosphate dehydrogenase-6-phosphogluconolactonase (Plasmodium falciparum 3D7)", "assigned.category": "TRUE"}
{"molecule": "Cc1ccc(S(=O)(=O)C=CS(=O)(=O)c2ccc(C)cc2)cc1", "measured.target": "glucose-6-phosphate dehydrogenase-6-phosphogluconolactonase (Plasmodium falciparum 3D7)", "assigned.category": "TRUE"}
{"molecule": "Cc1ccc(-n2c(N)c(C(=O)N3CCN(C)CC3)sc2=S)cc1", "measured.target": "glucose-6-phosphate dehydrogenase-6-phosphogluconolactonase (Plasmodium falciparum 3D7)", "assigned.category": "TRUE"}
{"molecule": "C=CCc1c(C)[nH]c(=S)c(C#N)c1C", "measured.target": "glucose-6-phosphate dehydrogenase-6-phosphogluconolactonase (Plasmodium falciparum 3D7)", "assigned.category": "FALSE"}
{"molecule": "COc1c(O)ccc2c1CN1CCc3cc4c(cc3C1C2)OCO4 (centres undefined)", "measured.target": "glucose-6-phosphate dehydrogenase-6-phosphogluconolactonase (Plasmodium falciparum 3D7)", "assigned.category": "FALSE"}
{"molecule": "CCC(C)(C)c1nnc(NC(=O)C2CCN(C(=O)c3ccco3)CC2)s1", "measured.target": "glucose-6-phosphate dehydrogenase-6-phosphogluconolactonase (Plasmodium falciparum 3D7)", "assigned.category": "FALSE"}
{"molecule": "COc1cccc(CNc2ccc3[nH]c(=O)[nH]c3c2)c1OCc1ccc(F)cc1", "measured.target": "glucose-6-phosphate dehydrogenase-6-phosphogluconolactonase (Plasmodium falciparum 3D7)", "assigned.category": "FALSE"}
{"molecule": "CCC(c1ccc(O)c(O)c1)C(CC)c1ccc(O)c(O)c1 (centres undefined)", "measured.target": "glucose-6-phosphate dehydrogenase-6-phosphogluconolactonase (Plasmodium falciparum 3D7)", "assigned.category": "FALSE"}
{"molecule": "CCCCOc1ccc(Cc2n[nH]c(=S)n2N)cc1", "measured.target": "glucose-6-phosphate dehydrogenase-6-phosphogluconolactonase (Plasmodium falciparum 3D7)", "assigned.category": "FALSE"}
{"molecule": "COc1cc(SSc2cc(OC)cc([N+](=O)[O-])c2N)c(N)c([N+](=O)[O-])c1", "measured.target": "glucose-6-phosphate dehydrogenase-6-phosphogluconolactonase (Plasmodium falciparum 3D7)", "assigned.category": "TRUE"}
{"molecule": "COc1ccc(C2(CNC(=O)c3ccc(OC)c([N+](=O)[O-])c3)CCCCC2)cc1OC", "measured.target": "glucose-6-phosphate dehydrogenase-6-phosphogluconolactonase (Plasmodium falciparum 3D7)", "assigned.category": "FALSE"}
{"molecule": "CN1CCc2cccc3c2[C@H]1Cc1ccc(O)c(O)c1-3", "measured.target": "glucose-6-phosphate dehydrogenase-6-phosphogluconolactonase (Plasmodium falciparum 3D7)", "assigned.category": "FALSE"}
{"molecule": "COc1ccc(N2CSC3=C(C#N)C(c4ccc(OC)c(OC)c4)CC(=O)N3C2)c(OC)c1 (centres undefined)", "measured.target": "glucose-6-phosphate dehydrogenase-6-phosphogluconolactonase (Plasmodium falciparum 3D7)", "assigned.category": "FALSE"}
